// Crabgrass plant response rating lookup, one value per entry
System: crabgrass
assay-notes: Test B pre/postemergence crabgrass
Format: in vivo, Digitaria sanguinalis
experimental-context: Rate 125 g/ha; Preemergence; scale of 0 to 10 where 0 is no effect and 10 is complete control
value-kind: Crabgrass plant response rating

>>> recorded_result("Cc1ccccc1-n1c(=O)on(C(=O)N(c2ccc(C(C)(C)C)cc2)C(C)C)c1=O")
0
>>> recorded_result("CC(C)N(C(=O)n1oc(=O)n(C2CC2)c1=O)c1ccc(Cl)cc1")
7
>>> recorded_result("CC(C)=CCn1c(=O)on(C(=O)N(c2ccc(F)cc2)C(C)C)c1=O")
2
>>> recorded_result("CC(C)N(C(=O)n1oc(=O)n(CC2(C)COC2)c1=O)c1ccc(F)cc1")
9
>>> recorded_result("Cc1ccccc1-n1c(=O)on(C(=O)N(c2ccc(F)cc2)C(C)C2CC2)c1=O (stereo not shown)")
4
>>> recorded_result("CC(C)N(C(=O)n1oc(=O)n(C2CCCC2)c1=O)c1ccc(F)cc1F")
4
>>> recorded_result("C=C(Cn1c(=O)on(C(=O)N(c2ccc(F)cc2)C(C)C)c1=O)C[Si](C)(C)C")
2

* * *

// Giant foxtail plant response rating lookup, one value per entry
System: giant foxtail
assay-notes: Test B pre/postemergence giant foxtail
Format: in vivo, Setaria faberii
experimental-context: Rate 62 g/ha, Postemergence; scale of 0 to 10 where 0 is no effect and 10 is complete control
value-kind: Giant foxtail plant response rating

>>> recorded_result("CC(C)N(C(=O)n1oc(=O)n(C2CCCCCC2)c1=O)C1=CCCCC1")
0
>>> recorded_result("Cc1ccccc1-n1c(=O)on(C(=O)N(c2ccc(Cl)cc2F)C(C)C)c1=O")
0
>>> recorded_result("CC(C)N(C(=O)n1oc(=O)n(C2CCCCC2)c1=O)c1ccc(F)cc1")
0
>>> recorded_result("COc1nc(OC)nc(N(C(=O)n2oc(=O)n(C(C)C)c2=O)C(C)C)n1")
0
>>> recorded_result("CC(C)N(C(=O)n1oc(=O)n(C(C)CCl)c1=O)c1ccc(F)cc1F (centres unmarked)")
9
>>> recorded_result("Cc1nn(C)c(C)c1-n1c(=O)on(C(=O)N(c2ccccc2)C(C)C)c1=O")
3
>>> recorded_result("CC(C)N(C(=O)n1oc(=O)n(C2CC2)c1=O)c1ccc(Cl)cc1")
2
>>> recorded_result("CCn1c(=O)on(C(=O)N(c2ccc(Cl)cc2)C(C)C)c1=O")
5
>>> recorded_result("CC(C)C(C)n1c(=O)on(C(=O)N(c2ccc(F)cc2F)C(C)C)c1=O (centres unmarked)")
2
>>> recorded_result("Cc1ccccc1-n1c(=O)on(C(=O)N(c2ccc(N(C)C)cc2)C(C)C)c1=O")
0
>>> recorded_result("CCc1noc(CC)c1-n1c(=O)on(C(=O)N(c2ccc(F)cc2)C(C)C)c1=O")
0

* * *

Test system: smallflower flatsedge
assay-notes: Test B flood test smallflower flatsedge
Assay type: in vivo, Cyperus difformis
experimental-context: Rate 500 g/ha; Pre-emergence; flood test species; scale 0 to 10 (0 no effect, 10 complete control)
value-kind: S. Flatsedge plant response rating

>>> recorded_result("Cc1c(-n2c(=O)on(C(=O)N(c3ccc(F)cc3F)C(C)C)c2=O)ccc2ccccc12")
0
>>> recorded_result("CC(C)N(C(=O)n1oc(=O)n(C2CCCCCC2)c1=O)c1ccc(Cl)cc1")
1
>>> recorded_result("CC(C)N(C(=O)n1oc(=O)n(CCCl)c1=O)c1ccc(Cl)cc1")
0
